Value source: paper PMC7044278

molecular target: human adenosine A2B receptor (Homo sapiens, UniProt P29275)
Quantity Kind: pKi
Reminder that pKi is minus the log10 of a molar concentration.

molecule="COC(=O)C1=C(C)NC(C)=C(C(=O)OCC(C)C)C1c1ccccc1[N+](=O)[O-] (centres unmarked) [nisoldipine]" quantity_kind=pKi number=5.85

Note: attention shifts to another entry.
Value sought: pKi, system human adenosine A2B receptor (Homo sapiens, UniProt P29275), item COC(=O)C1=C(C)NC(C)=C(C(=O)OC(C)C)C1c1cccc2nonc12 (centres unmarked) [isradipine] . Result: 4.94

###

molecular target: A2A receptor (Homo sapiens)
Sequence (P29274 whole entry): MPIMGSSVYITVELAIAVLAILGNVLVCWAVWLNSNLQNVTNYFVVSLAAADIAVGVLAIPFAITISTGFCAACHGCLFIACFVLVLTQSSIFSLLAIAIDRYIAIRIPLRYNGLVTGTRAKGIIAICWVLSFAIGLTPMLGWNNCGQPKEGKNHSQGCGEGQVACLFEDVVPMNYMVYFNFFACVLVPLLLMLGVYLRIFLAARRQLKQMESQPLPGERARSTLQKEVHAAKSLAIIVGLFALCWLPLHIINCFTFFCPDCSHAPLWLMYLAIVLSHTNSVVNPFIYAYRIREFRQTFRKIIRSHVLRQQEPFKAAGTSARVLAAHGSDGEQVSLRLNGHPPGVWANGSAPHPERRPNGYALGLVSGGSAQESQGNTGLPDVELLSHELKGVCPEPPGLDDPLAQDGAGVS
Quantity Kind: pKi
Keep in mind that pKi stands for -log10 of concentration in molar terms.

Form field pKi for item COC(=O)C1=C(C)NC(C)=C(C(=O)OC)C1c1ccccc1[N+](=O)[O-] on A2A receptor (Homo sapiens): 5.39

###

target: A1 receptor (Homo sapiens, UniProt P30542)
Sequence (P30542 whole entry): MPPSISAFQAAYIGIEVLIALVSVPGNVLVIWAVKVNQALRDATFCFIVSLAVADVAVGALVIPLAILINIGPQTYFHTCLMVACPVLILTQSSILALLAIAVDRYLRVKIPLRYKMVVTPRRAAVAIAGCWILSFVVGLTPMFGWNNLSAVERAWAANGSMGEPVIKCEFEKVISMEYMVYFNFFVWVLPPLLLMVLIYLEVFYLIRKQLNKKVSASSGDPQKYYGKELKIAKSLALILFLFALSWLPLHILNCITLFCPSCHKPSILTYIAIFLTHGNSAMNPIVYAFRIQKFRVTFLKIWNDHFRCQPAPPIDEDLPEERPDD
Quantity Kind: pKi
# reply with the number alone; pKi is -log10 of concentration in mol/L

COC(=O)C1=C(C)NC(C)=C(C(=O)OC)C1c1ccccc1[N+](=O)[O-] [nifedipine, Nifedipine] yielded pKi of 5.37

###

Target: human adenosine A2B receptor (Homo sapiens, UniProt P29275)
Sequence (P29275 1-332): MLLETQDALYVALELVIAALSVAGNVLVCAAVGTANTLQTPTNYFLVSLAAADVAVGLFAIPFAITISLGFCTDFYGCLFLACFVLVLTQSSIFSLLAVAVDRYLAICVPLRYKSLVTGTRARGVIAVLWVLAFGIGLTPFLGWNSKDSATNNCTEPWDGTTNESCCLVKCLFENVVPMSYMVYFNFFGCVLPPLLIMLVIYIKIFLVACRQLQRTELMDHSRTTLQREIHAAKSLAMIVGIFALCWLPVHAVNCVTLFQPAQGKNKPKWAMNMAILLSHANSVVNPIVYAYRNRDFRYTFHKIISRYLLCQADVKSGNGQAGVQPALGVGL
Assay: Calcium mobilization assay in CHO cells stably expressing A2B receptor and Gα15
Conditions: read-out: IC50, adenosine-induced calcium mobilization
Method: Calcium mobilization was assayed using the FRIPR® calcium-6 assay kit (Molecular Devices) according to the manufacturer’s instructions. […] Cells were incubated for 24 h at 37 °C in 5% CO2. After that, 100 μL loading buffer containing 2.5 mM probenecid was added to each well, and incubation proceeded for another 2 h. […] Fluorescence intensity (F) was measured by a TECAN plate reader (excitation 485 nm; emission 525 nm; 80 cycles; single detection). […]
Quantity Kind: IC50 (µM)
Quick reminder: number only, in µM, skip the unit.

IC50 reading for COC(=O)C1=C(C)NC(C)=C(C(=O)OCC(C)C)C1c1ccccc1[N+](=O)[O-] (stereo not shown) : 34

###

Biological target: A2B receptor (Homo sapiens, UniProt P29275)
Sequence (P29275 1-332): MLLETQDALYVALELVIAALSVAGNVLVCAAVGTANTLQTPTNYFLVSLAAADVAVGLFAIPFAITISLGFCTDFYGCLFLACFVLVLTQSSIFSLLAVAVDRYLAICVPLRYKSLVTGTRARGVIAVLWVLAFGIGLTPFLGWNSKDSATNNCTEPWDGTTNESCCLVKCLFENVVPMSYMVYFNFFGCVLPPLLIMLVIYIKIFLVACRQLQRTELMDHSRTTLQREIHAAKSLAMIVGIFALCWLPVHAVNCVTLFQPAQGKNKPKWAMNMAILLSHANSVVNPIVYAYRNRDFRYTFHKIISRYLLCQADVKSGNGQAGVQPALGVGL
Experiment: cAMP accumulation assay in colonic epithelial T84 cells
Details: T84 cells, adenosine-induced, 15 min
Quantity Kind: pIC50
Bear in mind: pIC50 is minus log10 of a mol/L concentration; give just that figure.

The reported value for COC(=O)C1=C(C)NC(C)=C(C(=O)OCC(C)C)C1c1ccccc1[N+](=O)[O-] (stereo not shown) [nisoldipine] in terms of pIC50 is 5.06
